# Test system: NCI-H1993
# assay.overview: relative viability (nuclei count vs DMSO), 5 days (fraction); higher = more cells survive
# condition: first compound 0.4 µM
endpoint.name: relative viability
Answer with a number only.

INSERT INTO measurements (molecule, endpoint_name, assay_result) VALUES
  ('C[C@@H]1CN(CC(=O)Nc2ccc3c(c2)Cc2cccc(-c4cc(=O)cc(N5CCOCC5)o4)c2S3)C[C@H](C)O1 + CC(C)C[C@H](NC(=O)[C@H](Cc1ccccc1)NC(=O)c1cnccn1)B(O)O [Bortezomib] (partner 0.002 µM)', 'relative viability', 0.763);

The record that follows has no relative viability shown yet.
Task item: // map Clc1ccc(Nc2nnc(Cc3ccncc3)c3ccccc23)cc1 [Vatalanib] + Cc1nc(Nc2ncc(C(=O)Nc3c(C)cccc3Cl)s2)cc(N2CCN(CCO)CC2)n1 [Dasatinib] (partner 0.075 µM) to recorded relative viability (system: NCI-H1993)
Reply: 0.574

Origin of measurements: the supplement of paper PMC10307832
